target: STK33 (human) (UniProt Q9BYT3); assay: radiometric filter-binding kinase assay; conditions: compound 10.0 µM
Sequence (Q9BYT3 whole entry, looked up): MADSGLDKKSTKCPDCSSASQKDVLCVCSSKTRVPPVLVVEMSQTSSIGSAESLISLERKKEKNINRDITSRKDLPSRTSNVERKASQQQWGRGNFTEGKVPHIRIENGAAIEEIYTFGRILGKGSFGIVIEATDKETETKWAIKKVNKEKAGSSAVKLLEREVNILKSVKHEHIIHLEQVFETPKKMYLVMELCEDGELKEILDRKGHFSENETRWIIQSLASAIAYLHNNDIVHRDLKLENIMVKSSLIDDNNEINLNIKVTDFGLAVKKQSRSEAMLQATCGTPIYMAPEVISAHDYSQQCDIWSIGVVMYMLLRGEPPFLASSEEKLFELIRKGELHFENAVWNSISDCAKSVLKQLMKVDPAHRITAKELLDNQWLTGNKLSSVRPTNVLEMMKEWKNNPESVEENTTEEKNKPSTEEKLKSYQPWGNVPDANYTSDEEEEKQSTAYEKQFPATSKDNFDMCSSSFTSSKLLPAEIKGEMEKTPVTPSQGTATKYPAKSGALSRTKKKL
Each record here notes measured residual activity.
Only the number, expressed in %, is required.

Solved entries:
Give the measured residual activity of `O=C(Nc1cccnc1)c1cc(-c2ccnc(F)c2)ccc1OCc1ccccc1` . 66

// lookup residual activity for `CCCCCc1ccc(/C=C/[C@H](O)[C@@H](CO)NC)cc1` 89

Consider the molecule `O=S(=O)(c1ccc(F)c2nonc12)N1CCN(c2ncc(C(F)(F)F)cc2Cl)CC1` and give its measured residual activity. 97

Continuing:
GET /values?readout=residual activity&item= `CCNc1nc(Nc2cc(F)c(C(=O)N3CCOCC3)cc2OC)ncc1C(F)(F)F` 22

So what does the record say about residual activity for `CCOC(=O)c1ccc(N2NC(=O)/C(=C/c3ccc([N+](=O)[O-])o3)C2=O)cc1` ? 119

---

molecular target: RPS6KA5 KD1 KD2 (human); test: radiometric filter-binding kinase assay; conditions: compound 1.0 µM
REPORTED_PROPERTY: residual activity (%)
Write the answer as a number in %, unit excluded.

Observed residual activity on RPS6KA5 KD1 KD2 (human) for `O=C1NC(=S)N[C@@H]1Cc1c[nH]c2ccccc12` , please. 80

Provide value of residual activity for this record tested with RPS6KA5 KD1 KD2 (human): CNC(=O)C1[C@H]2O[C@@](C)([C@@H]1N)n1c3ccccc3c3c4c(c5c6ccccc6n2c5c31)C(=O)NC4 (stereo partly specified) 2

Record `C=CC(=O)N1CCC[C@@H](n2nc(-c3ccc(Oc4ccccc4)cc3)c3c(N)ncnc32)C1` : what is its residual activity with RPS6KA5 KD1 KD2 (human)? 101

Write down the reported residual activity of `O=C(O)c1cc(N=Nc2ccc(S(=O)(=O)Nc3ccccn3)cc2)ccc1O` , test system: RPS6KA5 KD1 KD2 (human). 109

Further cases:
I'm curious: which residual activity was measured for `O=c1c(O)c(-c2ccc(O)c(O)c2)oc2cc(O)c(O)c(O)c12` tested on RPS6KA5 KD1 KD2 (human)? 88

Under RPS6KA5 KD1 KD2 (human): residual activity value of `FC(F)(F)c1ccc(-c2ccc(Oc3cncc4sc(-c5nn[nH]n5)cc34)cc2)cc1` ? 90

---

biological target: PAK4 (human) (UniProt O96013); assay: radiometric filter-binding kinase assay; conditions: compound 0.1 µM
Sequence (O96013 whole entry, looked up): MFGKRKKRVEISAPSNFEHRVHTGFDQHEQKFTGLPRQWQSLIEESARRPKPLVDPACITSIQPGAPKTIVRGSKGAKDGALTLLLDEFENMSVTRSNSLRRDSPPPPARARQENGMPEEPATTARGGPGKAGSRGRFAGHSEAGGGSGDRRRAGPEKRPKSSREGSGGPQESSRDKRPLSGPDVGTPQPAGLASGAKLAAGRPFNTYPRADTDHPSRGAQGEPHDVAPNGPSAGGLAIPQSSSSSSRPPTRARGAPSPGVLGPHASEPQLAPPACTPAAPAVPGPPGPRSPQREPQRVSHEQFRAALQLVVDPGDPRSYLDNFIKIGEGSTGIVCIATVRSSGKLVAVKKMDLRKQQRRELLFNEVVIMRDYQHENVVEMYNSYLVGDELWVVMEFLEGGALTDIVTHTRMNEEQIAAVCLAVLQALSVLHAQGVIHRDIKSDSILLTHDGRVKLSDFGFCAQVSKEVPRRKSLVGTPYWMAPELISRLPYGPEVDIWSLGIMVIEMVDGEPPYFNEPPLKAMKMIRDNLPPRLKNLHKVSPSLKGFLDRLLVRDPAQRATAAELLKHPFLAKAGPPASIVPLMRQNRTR
Reported residual activity values are given for each entry in this list.
Form entry: enter the amount, then its unit.

Endpoint output: residual activity of `COc1ccc(-n2ncc3cnc(Nc4cc(OC)c(OC)c(OCCCN5CCN(C)CC5)c4)nc32)cc1` . Value? 29%

For the molecule shown here, `CNc1nc(-c2ccc3c(N)n[nH]c3c2)cc(N2C[C@@H](C(=O)NC3CCCCC3)CC[C@H]2C)n1` , give the reported residual activity. 117%

Bench note: what residual activity did `C=CC(=O)N1CCC[C@@H](n2nc(-c3ccc(Oc4ccccc4)cc3)c3c(N)ncnc32)C1` show? 93%

Item under review: `NC(=O)c1cc(-c2ccnc(NC3CCCCC3)c2)nc(N2CCNCC2)c1` . Reported residual activity? 101%

# get_value(readout='residual activity', item= `COc1cc(O)c2c(c1)/C=C/C[C@H](O)[C@H](O)C(=O)/C=C\C[C@H](C)OC2=O` ) 94%

Quick one: residual activity of `NC1(c2ccc(-c3nc4ccn5c(=O)[nH]nc5c4cc3-c3ccccc3)cc2)CCC1` ? 75%

Using the record for `Cn1c(=O)c2c(ncn2C)n(C)c1=O` , report its residual activity. 99%

Any idea what its residual activity is? The molecule is `C/C(=C1/C(=O)Nc2ccc(NC(N)=O)cc21)c1ccc[nH]1` 76%

Looking for the measured residual activity of CNC(=O)C1[C@H]2O[C@@](C)([C@@H]1N)n1c3ccccc3c3c4c(c5c6ccccc6n2c5c31)C(=O)NC4 (some centres undefined) , can you help? 7%
